- test_target: Mcl-1 (Homo sapiens, UniProt Q07820)
- Sequence (Q07820 171-327): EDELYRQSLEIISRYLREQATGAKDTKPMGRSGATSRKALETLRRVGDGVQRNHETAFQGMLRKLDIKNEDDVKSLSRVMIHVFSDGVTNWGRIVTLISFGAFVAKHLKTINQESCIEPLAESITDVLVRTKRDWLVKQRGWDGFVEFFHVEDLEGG
- assay_procedure: FP-based binding assay, Mcl-1
- run_conditions: FP and SPR based binding studies; read-out: Ki to Mcl-1
metric: Ki (nM)
One number for each entry, in nM.

**Query** Query Ki for O=C(O)CSc1cc(NS(=O)(=O)c2ccc(Br)cc2)c2ccccc2c1O
**Result** 490

----------
- test_target: A1/Bfl-1 (Homo sapiens)
- Sequence (Q16548 1-151): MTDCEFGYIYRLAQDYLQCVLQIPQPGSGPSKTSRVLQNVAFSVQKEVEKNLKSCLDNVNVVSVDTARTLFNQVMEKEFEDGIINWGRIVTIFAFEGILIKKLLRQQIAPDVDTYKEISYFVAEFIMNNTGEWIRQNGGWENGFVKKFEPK
- assay_procedure: FP-based binding assay, A1/Bfl-1
- run_conditions: competitive FP, FAM-BID 1 nM, protein 4 nM; read-out: A1/Bfl-1 Ki ± SD
Would you kindly list pKi for each of these molecules?
One number for each entry, as −log10 of the molar value.

// input: 2 molecules below; output: pKi for each
1. O=C(O)CSc1cc(NS(=O)(=O)c2cccs2)c2ccccc2c1O
2. O=C(O)CSc1cc(NS(=O)(=O)c2ccc(Oc3ccccc3)cc2)c2ccccc2c1O

**Result**
5.21
5.47

----------
Would you kindly list pKi for each of these compounds?
- test_target: UniProtKB Q07820
- assay_procedure: FP-based binding assay, Mcl-1
- run_conditions: read-out: Mcl-1 Ki ± SD
Answers are plain numbers, as −log10 of the molar value.

// input: 2 compounds below; output: pKi for each
1. O=C(O)CSc1cc(NS(=O)(=O)c2ccc(Cl)cc2)c2ccccc2c1O
2. O=C(O)CSc1cc(NS(=O)(=O)c2ccc(-c3ccccc3)cc2)c2ccccc2c1O

**Result**
1. 6.09
2. 6.43

// input: 6 compounds below; output: pKi for each
1. O=C(O)CSc1cc(NS(=O)(=O)c2ccccc2-c2ccccc2)c2ccccc2c1O
2. O=S(=O)(Nc1cc(CCCCO)c(O)c2ccccc12)c1ccc(Br)cc1
3. O=C(O)CSc1cc(NS(=O)(=O)c2ccccc2Br)c2ccccc2c1O
4. NC(=O)CSc1cc(NS(=O)(=O)c2ccc(Br)cc2)c2ccccc2c1O
5. O=C(O)CSc1cc(NS(=O)(=O)c2cccc(-c3ccccc3)c2)c2ccccc2c1O
6. O=C(O)CSc1cc(NS(=O)(=O)c2ccccc2)c2ccccc2c1O

**Result**
5.69
5.66
5.35
5.77
6.42
5.45

----------
Would you kindly list fold improved binding to Mcl-1 compared to 2 for each of these compounds?
- test_target: UniProt Q07820
- assay_procedure: FP-based binding assay, Mcl-1
Give bare numbers, in fold.

{"columns": ["compound", "reading"],
 "data": [
  ["O=C(O)CSc1cc(NS(=O)(=O)c2ccc(Br)cc2)c2ccccc2c1O [Compound 9]", 7],
  ["O=C(O)CSc1cc(NS(=O)(=O)c2ccccc2-c2ccccc2)c2ccccc2c1O [Compound 16]", 2],
  ["O=C(O)CSc1cc(NS(=O)(=O)c2ccc(-c3ccccc3)cc2)c2ccccc2c1O [Compound 14]", 9]
]}

**Query** Query fold improved binding to Mcl-1 compared to 2 for O=C(O)CSc1cc(NS(=O)(=O)c2cccc(-c3ccccc3)c2)c2ccccc2c1O [Compound 15]
**Result** 9

----------
- test_target: Mcl-1 (Homo sapiens)
- assay_procedure: FP-based binding assay, Mcl-1
- run_conditions: competitive FP, Ki calculated from IC50; read-out: Mcl-1 Ki ± SD
metric: pKi
Give bare numbers, as −log10 of the molar value.

Some entries whose results are on file:
{"columns": ["compound", "test_target", "metric", "reading"],
 "data": [
  ["O=C(O)CSc1cc(NS(=O)(=O)c2ccc(F)cc2)c2ccccc2c1O [Compound 7]", "Mcl-1 (Homo sapiens)", "pKi", 5.37],
  ["O=C(O)CSc1cc(NS(=O)(=O)c2cc3ccccc3s2)c2ccccc2c1O [Compound 12]", "Mcl-1 (Homo sapiens)", "pKi", 5.81]
]}

// input: 5 compounds below; output: pKi for each
1. O=C(O)CSc1cc(NS(=O)(=O)Cc2ccc(Cl)cc2)c2ccccc2c1O [Compound 25]
2. O=C(O)CSc1cc(NS(=O)(=O)c2ccc(-c3ccc(Cl)cc3)cc2)c2ccccc2c1O [Compound 17]
3. O=C(O)CCSc1cc(NS(=O)(=O)c2ccc3ccccc3c2)c2ccccc2c1O [Compound 34]
4. O=C(O)CSc1cc(NS(=O)(=O)c2ccc3ccccc3c2)c2ccccc2c1O [Compound 13]
5. Cc1ccc(S(=O)(=O)Nc2cc(SCC(=O)O)c(O)c3ccccc23)cc1 [Compound 3]

**Result**
1. 5.28
2. 6.77
3. 5.95
4. 6.14
5. 5.50

// input: 5 compounds below; output: pKi for each
1. COC(=O)CSc1cc(NS(=O)(=O)c2ccc(Br)cc2)c2ccccc2c1O [Compound 29]
2. CCc1ccc(S(=O)(=O)Nc2cc(SCC(=O)O)c(O)c3ccccc23)cc1 [Compound 4]
3. O=C(O)CSc1cc(NS(=O)(=O)c2ccc(Br)cc2)c2ccccc2c1O [Compound 9]
4. O=C(O)CSc1cc(NS(=O)(=O)c2cccc(Br)c2)c2ccccc2c1O [Compound 10]
5. O=C(O)CSc1cc(NS(=O)(=O)c2ccc(C(=O)O)cc2)c2ccccc2c1O [Compound 20]

**Result**
1. 5.29
2. 5.81
3. 6.31
4. 5.63
5. 5.32

**Query** Query pKi for CC(C)(C)c1ccc(S(=O)(=O)Nc2cc(SCC(=O)O)c(O)c3ccccc23)cc1 [Compound 6]
**Result** 6.09

----------
- test_target: Mcl-1 (Homo sapiens, UniProt Q07820)
- assay_procedure: FP-based binding assay, Mcl-1
- run_conditions: competitive FP, Flu-BID 2 nM, Mcl-1 90 nM; read-out: Mcl-1 IC50 ± SD
Would you kindly list log10 of IC50 for each of these compounds?
Scale type: logarithmic (base 10). Underlying IC50 unit: µM.

Some entries whose results are on file:
{"columns": ["compound", "test_target", "log10 of IC50"],
 "data": [
  ["CCOc1ccc(S(=O)(=O)Nc2cc(SCC(=O)O)c(O)c3ccccc23)cc1 [Compound 19]", "Mcl-1 (Homo sapiens, UniProt Q07820)", 1.70],
  ["O=S(=O)(Nc1cc(CCCCO)c(O)c2ccccc12)c1ccc(Br)cc1 [Compound 32]", "Mcl-1 (Homo sapiens, UniProt Q07820)", 0.90],
  ["O=C(O)CSc1cc(NS(=O)(=O)c2ccccc2-c2ccccc2)c2ccccc2c1O [Compound 16]", "Mcl-1 (Homo sapiens, UniProt Q07820)", 0.87]
]}

// input: 5 compounds below; output: log10 of IC50 for each
1. CCc1ccc(S(=O)(=O)Nc2cc(SCC(=O)O)c(O)c3ccccc23)cc1 [Compound 4]
2. Cc1ccc(S(=O)(=O)Nc2cc(SCC(=O)O)c(O)c3ccccc23)cc1 [Compound 3]
3. O=C(O)CSc1cc(NS(=O)(=O)c2cccc(-c3ccccc3)c2)c2ccccc2c1O [Compound 15]
4. O=C(O)CSc1cc(NS(=O)(=O)c2ccc(Br)cc2)c2ccccc2c1O [Compound 9]
5. O=C(O)CSc1cc(NS(=O)(=O)Cc2ccc(Cl)cc2)c2ccccc2c1O [Compound 25]

**Result**
[0.76, 1.06, 0.15, 0.27, 1.28]

----------
- test_target: Mcl-1 (Homo sapiens, UniProt Q07820)
- assay_procedure: FP-based binding assay, Mcl-1
- run_conditions: competitive FP, Ki calculated from IC50; read-out: Mcl-1 Ki ± SD
pKi: −log10 of the molar value.
Would you kindly list pKi for each of these compounds?

// input: 4 compounds below; output: pKi for each
1. O=S(=O)(Nc1ccc(O)c2ccccc12)c1ccccc1
2. COC(=O)CSc1cc(NS(=O)(=O)c2ccc(Br)cc2)c2ccccc2c1OC [Compound 40d]
3. O=C(O)CSc1cc(NC(=O)c2ccc(Br)cc2)c2ccccc2c1O
4. CS(=O)(=O)Nc1cc(SCC(=O)O)c(O)c2ccccc12

**Result**
1. < 4.60
2. < 3.70
3. < 4.60
4. < 4.30

**Query** Report its pKi with Mcl-1 (Homo sapiens, UniProt Q07820) as the test system: O=C(O)CCSc1cc(NS(=O)(=O)c2cccc3ccccc23)c2ccccc2c1O
**Result** < 4.90

----------
- test_target: Mcl-1 (Homo sapiens, UniProt Q07820)
- assay_procedure: FP-based binding assay, Mcl-1
- run_conditions: competitive FP, Flu-BID 2 nM, Mcl-1 90 nM; read-out: Mcl-1 IC50 ± SD
Would you kindly list IC50 for each of these compounds?

Some entries whose results are on file:
{"columns": ["compound", "IC50"],
 "data": [
  ["CCCCSc1cc(NS(=O)(=O)c2ccc(Br)cc2)c2ccccc2c1OC [Compound 40p]", "> 800 µM"],
  ["COC(=O)CSc1cc(NS(=O)(=O)c2ccc(Br)cc2)c2ccccc2c1OC [Compound 40d]", "> 800 µM"],
  ["CCCCSc1cc(NS(=O)(=O)c2ccc(Br)cc2)c2ccccc2c1O", "> 100 µM"]
]}

// input: 2 compounds below; output: IC50 for each
1. O=C(O)CSc1cc(NC(=O)c2ccc(Br)cc2)c2ccccc2c1O
2. O=S(=O)(Nc1ccc(O)c2ccccc12)c1ccccc1

**Result**
1: > 100 µM; 2: > 100 µM
